Where do these numbers come from? They come from patent US8580321B2.

- Test system: NF-κB
- PROCEDURE SUMMARY: EMSA of NF-κB translocation / DNA binding in A549 cells
- CONDITION SUMMARY: A549 cells, 1 μg/ml, 45 min, EMSA of whole cell extracts
READOUT KIND: NF-κB Stimulation

Prompt: Specify reported NF-κB Stimulation for the molecule shown: BB′: flagellin fragment (56-177)-Linker-(402-450), SEQ ID NO: 14 (protein, Salmonella dublin) MRGSHHHHHHGMASMTGGQQMGRDLYDDDDKDPFTSNIKGLTQASRNANDGISIAQTTEGALNEINNNLQRVRELSVQATNGTNSDSDLKSIQDEIQQRLEEIDRVSNQTQFNGVKVLSQDNQMKIQVGANDGETITIDLQKIDVKSLGLDGFNVNSPGISGGGGGILDSMGTLINEDAAAAKKSTANPLASIDSALSKVDAVRSSLGAIQNRFDSAITNL
Response: No
